Tested on: 885724-159-R-J1-PDC KRAS PDC multicell spheroid viability;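 further: spheroids exposed to agents for 7 days before readout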
Assay Notes: Anticancer human tumor 885724-159-R-J1-PDC patient-derived pancreatic adenocarcinoma cell line growth inhibition [KRAS2]; active means viability on the fitted dose curve at most 10% of control; inactive means the rest
Condition: second compound 3.16 µM; first compound 0.316 µM
Classes used: active, inactive

{"columns": ["Molecule", "Class Name"],
 "data": [
  ["O=C(c1cc(Cc2n[nH]c(=O)c3ccccc23)ccc1F)N1CCN(C(=O)C2CC2)CC1 + COc1cc2nc(C)nc(NC(C)c3cc(N)cc(C(F)(F)F)c3)c2cc1OC1CCOC1", "inactive"],
  ["CC(C)NCC(C(=O)N1CCN(c2ncnc3c2C(C)CC3O)CC1)c1ccc(Cl)cc1 (stereo not given) + C=CC(=O)N1CCN(c2nc(OCC3CCCN3C)nc3c2CCN(c2cccc4cccc(C)c24)C3)CC1CC#N", "inactive"],
  ["CC1COCCN1c1cc(-c2ccnn2C)c2ccnc(-c3ccn[nH]3)c2n1 (stereo not given) + CC1OCC2(CCN(c3cnc(Sc4ccnc(N)c4Cl)c(N)n3)CC2)C1N", "inactive"],
  ["CCN1CCN(Cc2ccc(Nc3ncc(F)c(-c4cc(F)c5nc(C)n(C(C)C)c5c4)n3)nc2)CC1 + COc1cc2nc(C)nc(NC(C)c3cc(N)cc(C(F)(F)F)c3)c2cc1OC1CCOC1", "inactive"],
  ["COC(=O)c1ccc2c(C(=Nc3ccc(N(C)C(=O)CN4CCN(C)CC4)cc3)c3ccccc3)c(O)[nH]c2c1 + CNCc1ccccc1-c1csc(C(C)Nc2nc(C)nc3cc(OC)c(OC)cc23)c1", "active"]
]}
